Molecular target: Concanavalin-A (Canavalia ensiformis)
Test: ConA small-molecule binders, primary screen, artefact control for SMM control protein annotation, biochemical, small-molecule microarray, Alexa647 label, 635 nm (AID 1127);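 also: z combines 667 nm emission intensity with signal-to-noise across three replicate slides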
Settings: ConA-A647 binding fluorescence, higher = more signal
So I've got a bunch of compounds here, and I need their composite z-score values.
No unit in the answer, please; the number alone is enough.

Measured composite z-score, "CC(=O)NCCCC[C@@H]1NC(=O)[C@H]2C[C@@H](C(=O)NCCCC[N+](C)(C)C)[C@@H](c3cccc(OCCO)c3)N2C1=O" : 1.1

Measured composite z-score, [N-]=[N+]=Nc1ccccc1[C@@H]1OC(c2ccc(OCCCO)cc2)=N[C@]1(Cc1ccccc1)C(=O)NCC(O)CO (stereo partly specified) : 0.468

Measured composite z-score, "C=CCNC(=O)[C@H]1[C@@H]2C(=O)O[C@@H](c3ccccc3)[C@@H](c3ccccc3)N2[C@@H](c2ccc(O)cc2)[C@]12C(=O)N(C(=O)OCCOC)c1ccccc12" : 0.745

Measured composite z-score, "COCCOC(=O)N1C(=O)[C@@]2(c3cc(C#Cc4ccc(OC)cc4)ccc31)[C@H](c1ccccc1OCCO)N1[C@H](c3ccccc3)[C@H](c3ccccc3)OC(=O)[C@H]1[C@@H]2C(=O)N1CCCCCCC1" : 0.908

Measured composite z-score, "COc1ccc(-c2nc(-c3ccccc3)c3c(c2C)CO[Si]3(C(C)C)C(C)C)cn1" : -0.209

Measured composite z-score, "COCCOC(=O)N1C(=O)[C@@]2(c3cc(C#CCCO)ccc31)[C@H](c1ccccc1OCCO)N1[C@H](c3ccccc3)[C@H](c3ccccc3)OC(=O)[C@H]1[C@@H]2C(=O)Nc1nc2ccccc2s1" : 1.09

====

Tested on: Fibrinogen (Alexa647-labelled)
Experiment: fibrinogen binders on compound microarrays, profiling panel, artefact control for SMM control-protein annotation, biochemical, small-molecule microarray, 635/667 nm fluorescence (AID 1131);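 also: z-score merges 667 nm fluorescence with per-spot signal-to-noise over triplicate slides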
Settings: fibrinogen-A647 binding fluorescence, higher = more signal
ENDPOINT LABEL: composite z-score

Hey, Fibrinogen (Alexa647-labelled) data for "O=C(NCC(F)(F)F)[C@@H]1c2ccccc2C(=O)N(Cc2cc(F)cc(C(F)(F)F)c2)[C@H]1c1ccc(CO)cc1" : composite z-score came out at -0.78

Hey, Fibrinogen (Alexa647-labelled) data for "COC(=O)[C@@]1(Cc2ccc(OC)cc2)[C@H]2c3cc(C(=O)N(C)C)n(CCO)c3C[C@H]2CN1C(=O)c1ccccc1" : composite z-score came out at 0.662

Hey, Fibrinogen (Alexa647-labelled) data for CC(CO)N1C(=O)[C@@H]2[C@H]3C(=O)OCC=C[C@H]3OC23C=CCN(C(C)(C)C)C(=O)[C@@H]13 (stereo partly drawn) : composite z-score came out at -0.591

Hey, Fibrinogen (Alexa647-labelled) data for O=C1C2C=CC(C(O)c3ccccc3)N(Nc3ccccc3F)C2C(=O)N1c1ccccc1 (stereo not drawn) : composite z-score came out at 0.168

Hey, Fibrinogen (Alexa647-labelled) data for "O=C1O[C@@H](c2ccccc2)[C@@H](c2ccccc2)N2[C@@H](c3ccc(O)cc3)[C@]3(C(=O)Nc4ccc(C#CC5=CCCCC5)cc43)[C@@H](C(=O)NC[C@H](O)c3ccccc3)[C@H]12" : composite z-score came out at 0.925

Hey, Fibrinogen (Alexa647-labelled) data for "C=CC[C@@]1(C(=O)N2CCOCC2)N=C(c2ccc(OCCCO)cc2)O[C@@H]1c1ccccc1CN=[N+]=[N-]" : composite z-score came out at 0.905

Hey, Fibrinogen (Alexa647-labelled) data for CC(CO)N1C(=O)[C@@H]2[C@H]3C(=O)OCC=C[C@H]3OC23C=CCN(CCN2CCOCC2)C(=O)[C@@H]13 (stereo partly drawn) : composite z-score came out at -1.3

Hey, Fibrinogen (Alexa647-labelled) data for CN(C)C(=O)C1N=C(c2ccc(OCCCO)cc2)N(c2ccccc2)O1 (stereo not drawn) : composite z-score came out at 0.598

Hey, Fibrinogen (Alexa647-labelled) data for "CC1=C[C@@]2(CO)C(=O)[C@]3(CO3)[C@@H]1[C@H]1[C@]2(C)C=C(CO)C(=O)[C@]12CO2" : composite z-score came out at -0.403

Hey, Fibrinogen (Alexa647-labelled) data for "C=CCN1C(=O)[C@@]2(CCS(=O)(=O)c3ccccc3)N=C(c3ccc(OCCCO)cc3)O[C@H]2c2ccccc21" : composite z-score came out at 0.884

Hey, Fibrinogen (Alexa647-labelled) data for "CCOC(=O)C[C@H]1[C@H](OC(=O)c2ccccc2-c2ccccc2)[C@@H](NC(=O)c2ccc(-c3ccccc3)cc2)c2cc(OCCCO)ccc2N1C(=O)c1ccc2ccccc2n1" : composite z-score came out at 0.456

Hey, Fibrinogen (Alexa647-labelled) data for "NC(=O)NCC#Cc1ccc2c(c1)[C@]1(C(=O)N2)[C@H](C(=O)NC[C@H](O)c2ccccc2)[C@H]2C(=O)O[C@H](c3ccccc3)[C@H](c3ccccc3)N2[C@@H]1c1ccc(OCCO)cc1" : composite z-score came out at 0.829

Hey, Fibrinogen (Alexa647-labelled) data for "COc1ccc([Si](C)(C)[C@H]2[C@H](CCO)O[C@@]3(C(=O)N(Cc4cccc(N5C(=O)COc6ccccc65)c4)c4ccccc43)[C@@H]2C)cc1" : composite z-score came out at 0.0563

Hey, Fibrinogen (Alexa647-labelled) data for "[N-]=[N+]=Nc1ccccc1[C@H]1OC(c2ccc(OCCCO)cc2)=N[C@@]1(Cc1ccccc1)C(=O)N1CCCCC1" : composite z-score came out at 0.963

Hey, Fibrinogen (Alexa647-labelled) data for CC(C)(C)N1CC=CC23O[C@@H]4C=CCCOC(=O)C4[C@H]2C(=O)N(CCO)[C@@H]3C1=O (stereo partly drawn) : composite z-score came out at 0.0853

Hey, Fibrinogen (Alexa647-labelled) data for "COc1cc2c(cc1OC)CN(C(=O)[C@@H]1[C@H]3C(=O)O[C@H](c4ccccc4)[C@H](c4ccccc4)N3[C@H](c3ccc(OCCO)cc3)[C@@]13C(=O)Nc1ccc(C#CC4(O)CCCCCC4)cc13)CC2" : composite z-score came out at 0.966

Hey, Fibrinogen (Alexa647-labelled) data for "COc1ccc([Si](C)(C)[C@@H]2[C@@H](CCn3cc([C@H](O)c4ccccc4)nn3)O[C@]3(C(=O)N(Cc4ccc(N5CCC5=O)cc4)c4ccccc43)[C@H]2C)cc1" : composite z-score came out at -0.926

Hey, Fibrinogen (Alexa647-labelled) data for "COC(=O)[C@@]1(Cc2ccc(OC)cc2)[C@H]2c3cc(C(=O)N4CCCC4)n(Cc4c(-c5ccccc5)noc4C)c3C[C@H]2CN1C(=O)c1ccccc1" : composite z-score came out at 0.695

Hey, Fibrinogen (Alexa647-labelled) data for "CC(C)C(=C=CC[C@H](O)c1ccc(OCCO)cc1)C[C@H](O)c1ccccn1" : composite z-score came out at 0.3

Hey, Fibrinogen (Alexa647-labelled) data for COc1cc(OC)c(C(O)C2C=CC3C(=O)N(c4ccccc4)C(=O)C3N2Nc2ccccc2)cc1Br (stereo not drawn) : composite z-score came out at 0.454

Hey, Fibrinogen (Alexa647-labelled) data for "CCOC(=O)C1=CC[C@@H](c2ccccc2C(F)(F)F)N(S(=O)(=O)c2ccc(C)cc2)[C@H]1c1ccc(C#N)cc1" : composite z-score came out at 0.647

Hey, Fibrinogen (Alexa647-labelled) data for "Cc1ccc(S[C@]2(C(=O)NCC(F)(F)F)CC(=O)N(C3CCCCC3)[C@@H]2c2ccc(CO)cc2I)cc1" : composite z-score came out at 0.774

Hey, Fibrinogen (Alexa647-labelled) data for "CCCCC=C[C@@H](NC(=O)c1ccc(-c2ccccc2)cc1)c1ccccc1" : composite z-score came out at 0.413

Hey, Fibrinogen (Alexa647-labelled) data for "CCCC[C@@H]1C[C@H]1[C@@H](NC(=O)c1cccs1)c1ccc(C(F)(F)F)cc1" : composite z-score came out at -0.364

Hey, Fibrinogen (Alexa647-labelled) data for "O=C1O[C@H](c2ccccc2)[C@H](c2ccccc2)N2[C@H]1[C@@H](C(=O)N1CCN(c3ncccn3)CC1)[C@]1(C(=O)Nc3ccc(C#CC4(O)CCCCCC4)cc31)[C@H]2c1ccc(OCCO)cc1" : composite z-score came out at 0.966

Hey, Fibrinogen (Alexa647-labelled) data for "CCCCCCc1nc(C2CC2)cc2c1[Si](C(C)C)(C(C)C)OC2" : composite z-score came out at 0.691

Hey, Fibrinogen (Alexa647-labelled) data for "CCOC(=O)c1ccc(NC(=O)O[C@H]2[C@H](OC(=O)Nc3ccc4c(c3)OCO4)[C@@H](OC(=O)Nc3ccc4c(c3)OCO4)[C@@H](OC)O[C@@H]2CO)cc1" : composite z-score came out at 0.992

Hey, Fibrinogen (Alexa647-labelled) data for "COC(=O)[C@@]1(Cc2ccccc2N=[N+]=[N-])N=C(c2ccc(OCCCO)cc2)O[C@H]1c1ccccc1N=[N+]=[N-]" : composite z-score came out at 0.605

Origin of values: PubChem BioAssay
